B1: TPR t1 (parent)
chain: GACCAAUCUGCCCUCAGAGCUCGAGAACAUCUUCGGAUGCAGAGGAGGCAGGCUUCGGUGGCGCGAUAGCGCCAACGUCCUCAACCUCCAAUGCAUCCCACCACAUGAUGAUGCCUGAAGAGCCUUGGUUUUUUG

# Variants of: B1
# experiment summary: polymerase ribozyme fitness, log enrichment relative to wild type (log ratio); higher = more active; in vitro selection for triplet polymerase activity
Criterion: polymerase ribozyme fitness (log ratio) meeting or surpassing -4. Met: 1. Not met: 0.

Lookup: For this variant, is measured polymerase ribozyme fitness (log ratio) -4 or higher? "GACAAAUCUGCCCUCAGAGCUCGAGAACAUCUUCGGAUGCAGAGGAGGCAGGCUUCGGUGGCGCGAUAGCGCCAACGUCCUCAACCUCCAAUGCAUCCCACCACAUGAUGAUGCCUCAAGAGCCUUGGUUUUUUG"
Found: 0

Lookup: In plain terms: is recorded polymerase ribozyme fitness (log ratio) at least -4 for "GACCAAUCUGCGCUCAGAGCUCGAGAACAUCUUCGGAUGCAGAGGAGGCAGGUUUCGGUGGCGCGAUAGCGCCAACGUCCUCAACCUCCAAUCCAUCCCACCACAUGAUGAUGCCUGAAGAGCCUUGGUUUUUUG" ?
Found: 1

Lookup: State whether the measured polymerase ribozyme fitness (log ratio) reaches -4, counting equality as reaching it, for "GACCAAUCUGCCCUCAGAGCUCGAGAUCAUCUUCGGAUGCAGAGGAGGCAGGCUUCGGUGGCGCGAUAGCGCCAACGUCCUCAACCUCCAAUGCAUCCCAACACAUGAUGAUGCCUGAAGAGCCUUGGUUUUUUG"
Found: 0

Lookup: Could you verify whether the entry "GACCAAUCUGCCCUCAGAGCUCGAGAAGAUCUUCGGAUGCAGAGGAGGCAGGCUUCGGUGGCGCGGUAGCGCCAACGUCCUCAACCUCCAAUGCAUCCCACCACAUGAUGAUGCCUGAAGAGUCUUGGUUUUUUG" shows polymerase ribozyme fitness (log ratio) of no less than -4?
Found: 1

Lookup: Hi team, for "GACCAAUCUGCCCUCAGAGCUCGAGAACAUCUUCGGAUGCAGAGGCGGCAGGCUUCGGUGGCGCGAUAGCGCCAACGUCCUCAACCACCAAUGCAUCCCACCACAUGAUCAUGCCUGAAGAGCCUUGGUUUUUUG" , is the recorded polymerase ribozyme fitness (log ratio) at or above -4?
Found: 1

Lookup: hey, is polymerase ribozyme fitness (log ratio) for this one >= -4? "GACCAAUCUGCUCUCUGAGUUCGAGAACAUCUUCGGAUGCAGAGGAGGCAGGCUUCGGUGGCGCGAUAGCCCCAACGUCCUCAACCUCCAAUGCAUCCCACCACAUGAUGAUGACUGAAGAGCCUUUGUUUUUUG"
Found: 1

Lookup: Decide: is the reported value of polymerase ribozyme fitness (log ratio) for "GACCAAUCUGCCCUCAGAGCUCGAGAACAUCUUCGGAUGCAGAGGAGGCAGGCUUCGGUGGUGCGAUAGCGCCAACGUCCUCAACCUCAAAUGCAUCCCACCACAUGAUGAUGCCUGAAGAGCAUUGGUUUUUUG" equal to or greater than -4?
Found: 1

Lookup: Evaluate "GACCAAUCUGCCCUCAGAGCUCGAGAACAUCUUCGGAUGCAGAGGAGGCAGGCUUCGGUGGCGCGAUACCGCCAACGUCCUCAACCUCCAAUGCAUCCCACCACAUGAUGAUGCCCGAAGAGCCUUGGUUUUUUG" : polymerase ribozyme fitness (log ratio) at minimum -4?
Found: 1

Lookup: I'd appreciate it if you could say whether "GACCAAUCUGCCCUCAGAGCUCGAGAACAUCUUCGGAUGCAGAGGAGGCAGGCUUCGGUGGCGCGAUAGCGCCAAGGUCCUUAACCUCCAAUGCAUCCCACCACAUGAUGAUGCCUGAAGAGCCUUGGUUUUUUG" has polymerase ribozyme fitness (log ratio) at least equal to -4.
Found: 1

Lookup: State whether the measured polymerase ribozyme fitness (log ratio) reaches -4, counting equality as reaching it, for "GACCAAUCUGCCCUCAGAGCUCGAGAACAUCUUCGGAUGCUGAGGAGGCAGGCUUCGGUGGCGCGAUAGCGCCAACGUCCUCAACCUCCAAUGCAUCCCACCACAUGAUGAUCCAUGAAGAGCAUUGGUUUUUUG"
Found: 0
